From: the supplement of paper PMC9112550

- Test system: Escherichia coli TOP10;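 further: peptides expressed intracellularly from a pBAD plasmid library in pooled LB shake-flask culture, induced with 0.3% L-arabinose, DNA abundance read by NGS, three biological replicates, DESeq2 with apeglm shrinkage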
- ASSAY PROCEDURE: shrunken log2 fold change of peptide-encoding DNA abundance (4.5 h post-induction vs induction); higher = less antimicrobial activity (less host growth inhibition)
- DETAILS: time post-induction: 4.5 h; library: site-saturation at positions 5, 18, 19, 20
ATTRIBUTE MEASURED: shrunken log2 fold change

// worked examples, shrunken log2 fold change included
RRIRSRPPRLPRPRPRPMTVPRP : -0.0124
RRIRDRPPRLPRPRPRPLCEPRP : 0.715
RRIRRRPPRLPRPRPRPNFVPRP : -0.142
RRIRGRPPRLPRPRPRPDCTPRP : 0.615
RRIRGRPPRLPRPRPRPHHNPRP : -0.372
RRIRVRPPRLPRPRPRPFNEPRP : -0.258
RRIRPRPPRLPRPRPRPRKCPRP : 0.0115
RRIRRRPPRLPRPRPRPQPDPRP : 0.317

Quick one: shrunken log2 fold change of RRIRGRPPRLPRPRPRPIYYPRP ?
-0.197

Now give it for RRIRPRPPRLPRPRPRPHVQPRP too.
-0.0151

Now give it for RRIRWRPPRLPRPRPRPSWLPRP too.
-0.167

Now give it for RRIRARPPRLPRPRPRPLSCPRP too.
0.214

Now give it for RRIRMRPPRLPRPRPRPVCYPRP too.
-0.21

Now give it for RRIRLRPPRLPRPRPRPTAYPRP too.
-0.047

Now give it for RRIRERPPRLPRPRPRPAMYPRP too.
-0.205
